target of assay: Type-2 angiotensin II receptor (Homo sapiens); note: in other assays of this panel Not Active means under 50% inhibition at 10 µM
Sequence (P50052 whole entry): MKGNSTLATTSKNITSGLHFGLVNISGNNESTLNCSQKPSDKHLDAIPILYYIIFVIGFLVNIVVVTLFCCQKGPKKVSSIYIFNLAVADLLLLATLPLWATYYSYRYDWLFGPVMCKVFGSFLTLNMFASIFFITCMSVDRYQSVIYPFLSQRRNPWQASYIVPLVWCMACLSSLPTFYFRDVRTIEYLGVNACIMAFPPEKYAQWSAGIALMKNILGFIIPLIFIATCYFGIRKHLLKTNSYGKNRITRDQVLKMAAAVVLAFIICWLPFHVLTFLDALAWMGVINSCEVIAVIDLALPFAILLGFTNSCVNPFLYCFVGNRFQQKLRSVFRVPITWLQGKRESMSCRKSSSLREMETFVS
Assay type: cell-based
settings: cho-k1
result type: IC50

CCN(CC)N=O [N-NITROSODIETHYLAMINE]
Not Active
CC(=O)[C@]1(O)Cc2c(O)c3c(c(O)c2[C@@H](O[C@H]2C[C@H](N)[C@H](O)[C@H](C)O2)C1)C(=O)c1ccccc1C3=O [IDARUBICIN]
Not Active
CNCCCC12CCC(c3ccccc31)c1ccccc12 [MAPROTILINE]
Not Active
CCOC(=O)C1=C(C)NC(C)=C(C(=O)OCC)C1c1ccccc1/C=C/C(=O)OC(C)(C)C [LACIDIPINE]
Not Active
c1ccc(Cn2ccnc2)cc1
Not Active

Inquiry: Please report the measured IC50 for CC(C)(C#N)c1cc(Cn2cncn2)cc(C(C)(C)C#N)c1 [ANASTROZOLE]
Reply text: Not Active

Inquiry: Annotate the compound CC1=C(/C=C/C(C)=C/C=C/C(C)=C/C(=O)O)C(C)(C)CCC1 [TRETINOIN] with its measured IC50.
Reply text: Not Active

Inquiry: Provide one value: measured IC50 of CNC[C@H](O)c1ccc(O)c(O)c1 [EPINEPHRINE]
Reply text: Not Active

Inquiry: Please look at this compound and report its IC50: O=C1CC[C@@]2(O)[C@H]3Cc4ccc(O)c5c4[C@@]2(CCN3CC2CC2)[C@H]1O5 [NALTREXONE]
Reply text: Not Active

Sourced from ChEMBL document CHEMBL1909046
